system: SW-620; test: Antiproliferative activity against colon cancer SW-620 cell line; format: functional, cell-based; settings: Homo sapiens
measuredEndpoint: pIC50
Just so you know, pIC50 here is -log10 of the concentration in molar units; reply with that number alone.

Entry COc1cc(C(=O)/C=C/c2ccccc2)cc(OC)c1OC ; pIC50 = 4.80

---

system: DU-145; assay: Antiproliferative activity against human cancer DU-145 cell line; format: functional, cell-based; settings: du-145
measuredEndpoint: pIC50
Just so you know, pIC50 here is -log10 of the concentration in molar units; reply with that number alone.

Entry COc1ccc(-c2cc(-c3cc(OC)c(OC)c(OC)c3)[nH]n2)cc1 ; pIC50 = 4.57
